Please go through the items and note down their MBC.
# System: Staphylococcus aureus
# methodSummary: Bactericidal activity against methicillin-resistant Staphylococcus aureus incubated in dark for 30 mins followed by exposure to light fluences at 650 nm and 6 J/cm2 and then incubated overnight followed by further incubation on LB agar plates for another 24 hrs
# Format: functional
# protocolConditions: light or radiation study
Reply numerically in µM, unit not repeated.

In: Consider the compound NCCCC[C@H](N)C(=O)Nc1ccc(-c2c3nc(c(-c4ccc(NC(=O)[C@@H](N)CCCCN)cc4)c4ccc([nH]4)c(-c4ccc(NC(=O)[C@@H](N)CCCCN)cc4)c4nc(c(-c5ccc(NC(=O)[C@@H](N)CCCCN)cc5)c5ccc2[nH]5)C=C4)C=C3)cc1 and give its recorded MBC.
Out: 7.81

In: Consider the compound Nc1ccc(-c2c3nc(c(-c4ccc(N)cc4)c4ccc([nH]4)c(-c4ccc(N)cc4)c4nc(c(-c5ccc(N)cc5)c5ccc2[nH]5)C=C4)C=C3)cc1 and give its recorded MBC.
Out: 125

In: Consider the compound NCCCC[C@H](N)C(=O)Nc1ccc(-c2c3nc(c(-c4ccccc4)c4ccc([nH]4)c(-c4ccc(N)cc4)c4nc(c(-c5ccccc5)c5ccc2[nH]5)C=C4)C=C3)cc1 and give its recorded MBC.
Out: 250

In: Consider the compound NCCCC[C@H](N)C(=O)Nc1ccc(-c2c3nc(c(-c4ccc(N)cc4)c4ccc([nH]4)c(-c4ccccc4)c4nc(c(-c5ccccc5)c5ccc2[nH]5)C=C4)C=C3)cc1 and give its recorded MBC.
Out: 125

In: Consider the compound Nc1ccc(-c2c3nc(c(-c4ccccc4)c4ccc([nH]4)c(-c4ccccc4)c4nc(c(-c5ccccc5)c5ccc2[nH]5)C=C4)C=C3)cc1 and give its recorded MBC.
Out: 500

In: Consider the compound NCCCC[C@H](N)C(=O)Nc1ccc(-c2c3nc(c(-c4ccc(N)cc4)c4ccc([nH]4)c(-c4ccc(N)cc4)c4nc(c(-c5ccc(N)cc5)c5ccc2[nH]5)C=C4)C=C3)cc1 and give its recorded MBC.
Out: 500

In: Consider the compound NCCCC[C@H](N)C(=O)Nc1ccc(-c2c3nc(c(-c4ccc(NC(=O)[C@@H](N)CCCCN)cc4)c4ccc([nH]4)c(-c4ccccc4)c4nc(c(-c5ccccc5)c5ccc2[nH]5)C=C4)C=C3)cc1 and give its recorded MBC.
Out: 62.5

In: Consider the compound Nc1ccc(-c2c3nc(c(-c4ccc(N)cc4)c4ccc([nH]4)c(-c4ccc(NC(=O)[C@@H](N)Cc5c[nH]cn5)cc4)c4nc(c(-c5ccc(N)cc5)c5ccc2[nH]5)C=C4)C=C3)cc1 and give its recorded MBC.
Out: 250

In: Consider the compound N=C(N)NCCC[C@H](N)C(=O)Nc1ccc(-c2c3nc(c(-c4ccc(N)cc4)c4ccc([nH]4)c(-c4ccc(N)cc4)c4nc(c(-c5ccc(N)cc5)c5ccc2[nH]5)C=C4)C=C3)cc1 and give its recorded MBC.
Out: 500

In: Consider the compound Nc1ccc(-c2c3nc(c(-c4ccc(N)cc4)c4ccc([nH]4)c(-c4ccccc4)c4nc(c(-c5ccccc5)c5ccc2[nH]5)C=C4)C=C3)cc1 and give its recorded MBC.
Out: 250

----------
Please go through the items and note down their MBC.
# Test system: Staphylococcus aureus
# methodSummary: Antibacterial activity against methicillin-resistant Staphylococcus aureus incubated in dark for 30 mins and grown for 24 hrs followed by further incubation on LB agar plates for another 24 hrs
# Format: functional

In: Output reported MBC of the molecule Nc1ccc(-c2c3nc(c(-c4ccccc4)c4ccc([nH]4)c(-c4ccccc4)c4nc(c(-c5ccccc5)c5ccc2[nH]5)C=C4)C=C3)cc1 on Staphylococcus aureus.
Out: 500 µM

In: Output reported MBC of the molecule NCCCC[C@H](N)C(=O)Nc1ccc(-c2c3nc(c(-c4ccc(N)cc4)c4ccc([nH]4)c(-c4ccc(NC(=O)[C@@H](N)CCCCN)cc4)c4nc(c(-c5ccc(N)cc5)c5ccc2[nH]5)C=C4)C=C3)cc1 on Staphylococcus aureus.
Out: 250 µM

In: Output reported MBC of the molecule NCCCC[C@H](N)C(=O)Nc1ccc(-c2c3nc(c(-c4ccc(N)cc4)c4ccc([nH]4)c(-c4ccc(N)cc4)c4nc(c(-c5ccc(N)cc5)c5ccc2[nH]5)C=C4)C=C3)cc1 on Staphylococcus aureus.
Out: > 500 µM

In: Output reported MBC of the molecule Nc1ccc(-c2c3nc(c(-c4ccccc4)c4ccc([nH]4)c(-c4ccc(N)cc4)c4nc(c(-c5ccccc5)c5ccc2[nH]5)C=C4)C=C3)cc1 on Staphylococcus aureus.
Out: 125 µM

----------
# System: Pseudomonas aeruginosa
# methodSummary: Antibacterial activity against Pseudomonas aeruginosa ATCC 27853 incubated in dark for 30 mins followed by exposure to light fluences at 650 nm and 6 J/cm2 and then incubated overnight measured after 24 hrs
# Type: functional
# protocolConditions: ATCC 27853, light or radiation study
In plain terms, low MIC, meaning strictly below 60 µM, gives MET, and everything else gives NOT MET.

In: Find out if reported MIC for NCCCC[C@H](N)C(=O)Nc1ccc(-c2c3nc(c(-c4ccccc4)c4ccc([nH]4)c(-c4ccccc4)c4nc(c(-c5ccccc5)c5ccc2[nH]5)C=C4)C=C3)cc1 is less than 60 µM
Out: NOT MET

In: Find out if reported MIC for Nc1ccc(-c2c3nc(c(-c4ccc(N)cc4)c4ccc([nH]4)c(-c4ccc(NC(=O)[C@@H](N)Cc5c[nH]cn5)cc4)c4nc(c(-c5ccc(N)cc5)c5ccc2[nH]5)C=C4)C=C3)cc1 is less than 60 µM
Out: NOT MET

In: Find out if reported MIC for NCCCC[C@H](N)C(=O)Nc1ccc(-c2c3nc(c(-c4ccc(NC(=O)[C@@H](N)CCCCN)cc4)c4ccc([nH]4)c(-c4ccc(NC(=O)[C@@H](N)CCCCN)cc4)c4nc(c(-c5ccc(NC(=O)[C@@H](N)CCCCN)cc5)c5ccc2[nH]5)C=C4)C=C3)cc1 is less than 60 µM
Out: MET

In: Find out if reported MIC for N[C@@H](Cc1c[nH]cn1)C(=O)Nc1ccc(-c2c3nc(c(-c4ccccc4)c4ccc([nH]4)c(-c4ccccc4)c4nc(c(-c5ccccc5)c5ccc2[nH]5)C=C4)C=C3)cc1 is less than 60 µM
Out: NOT MET

In: Find out if reported MIC for N=C(N)NCCC[C@H](N)C(=O)Nc1ccc(-c2c3nc(c(-c4ccc(N)cc4)c4ccc([nH]4)c(-c4ccc(N)cc4)c4nc(c(-c5ccc(N)cc5)c5ccc2[nH]5)C=C4)C=C3)cc1 is less than 60 µM
Out: NOT MET

In: Find out if reported MIC for NCCCC[C@H](N)C(=O)Nc1ccc(-c2c3nc(c(-c4ccc(N)cc4)c4ccc([nH]4)c(-c4ccccc4)c4nc(c(-c5ccccc5)c5ccc2[nH]5)C=C4)C=C3)cc1 is less than 60 µM
Out: NOT MET

In: Find out if reported MIC for NCCCC[C@H](N)C(=O)Nc1ccc(-c2c3nc(c(-c4ccc(NC(=O)[C@@H](N)CCCCN)cc4)c4ccc([nH]4)c(-c4ccc(NC(=O)[C@@H](N)CCCCN)cc4)c4nc(c(-c5ccc(N)cc5)c5ccc2[nH]5)C=C4)C=C3)cc1 is less than 60 µM
Out: MET

In: Find out if reported MIC for NCCCC[C@H](N)C(=O)Nc1ccc(-c2c3nc(c(-c4ccccc4)c4ccc([nH]4)c(-c4ccc(NC(=O)[C@@H](N)CCCCN)cc4)c4nc(c(-c5ccccc5)c5ccc2[nH]5)C=C4)C=C3)cc1 is less than 60 µM
Out: MET

In: Find out if reported MIC for Nc1ccc(-c2c3nc(c(-c4ccccc4)c4ccc([nH]4)c(-c4ccc(N)cc4)c4nc(c(-c5ccccc5)c5ccc2[nH]5)C=C4)C=C3)cc1 is less than 60 µM
Out: NOT MET

In: Find out if reported MIC for NCCCC[C@H](N)C(=O)Nc1ccc(-c2c3nc(c(-c4ccc(N)cc4)c4ccc([nH]4)c(-c4ccc(NC(=O)[C@@H](N)CCCCN)cc4)c4nc(c(-c5ccc(N)cc5)c5ccc2[nH]5)C=C4)C=C3)cc1 is less than 60 µM
Out: MET

In: Find out if reported MIC for Nc1ccc(-c2c3nc(c(-c4ccccc4)c4ccc([nH]4)c(-c4ccccc4)c4nc(c(-c5ccccc5)c5ccc2[nH]5)C=C4)C=C3)cc1 is less than 60 µM
Out: NOT MET

In: Find out if reported MIC for Nc1ccc(-c2c3nc(c(-c4ccc(N)cc4)c4ccc([nH]4)c(-c4ccccc4)c4nc(c(-c5ccccc5)c5ccc2[nH]5)C=C4)C=C3)cc1 is less than 60 µM
Out: NOT MET

In: Find out if reported MIC for Nc1ccc(-c2c3nc(c(-c4ccc(N)cc4)c4ccc([nH]4)c(-c4ccc(N)cc4)c4nc(c(-c5ccc(N)cc5)c5ccc2[nH]5)C=C4)C=C3)cc1 is less than 60 µM
Out: NOT MET

In: Find out if reported MIC for NCCCC[C@H](N)C(=O)Nc1ccc(-c2c3nc(c(-c4ccccc4)c4ccc([nH]4)c(-c4ccc(N)cc4)c4nc(c(-c5ccccc5)c5ccc2[nH]5)C=C4)C=C3)cc1 is less than 60 µM
Out: NOT MET

In: Find out if reported MIC for N=C(N)NCCC[C@H](N)C(=O)Nc1ccc(-c2c3nc(c(-c4ccccc4)c4ccc([nH]4)c(-c4ccccc4)c4nc(c(-c5ccccc5)c5ccc2[nH]5)C=C4)C=C3)cc1 is less than 60 µM
Out: NOT MET

In: Find out if reported MIC for NCCCC[C@H](N)C(=O)Nc1ccc(-c2c3nc(c(-c4ccc(NC(=O)[C@@H](N)CCCCN)cc4)c4ccc([nH]4)c(-c4ccccc4)c4nc(c(-c5ccccc5)c5ccc2[nH]5)C=C4)C=C3)cc1 is less than 60 µM
Out: MET

In: Find out if reported MIC for NCCCC[C@H](N)C(=O)Nc1ccc(-c2c3nc(c(-c4ccc(N)cc4)c4ccc([nH]4)c(-c4ccc(N)cc4)c4nc(c(-c5ccc(N)cc5)c5ccc2[nH]5)C=C4)C=C3)cc1 is less than 60 µM
Out: NOT MET
